Listed here are sequences together with their documented protein stability index.
Test system: Saccharomyces cerevisiae
Test details: protein stability index of tFT-peptide fusion (C-terminal peptide) (PSI (0-1 scale)); higher = more stable (slower turnover)
Cond: genetic background: das1 deletion; temperature: 37 C
Readout name: protein stability index

Chain sequence	System tested	Readout name	Recorded value
WKNIHGVFVFVM	Saccharomyces cerevisiae	protein stability index	0.57
CEERVKSRLKQN	Saccharomyces cerevisiae	protein stability index	0.728
LVGWSWRGWFVV	Saccharomyces cerevisiae	protein stability index	0.769
SDVLVVWVFFCR	Saccharomyces cerevisiae	protein stability index	0.466
CHPIPLARLAPT	Saccharomyces cerevisiae	protein stability index	0.743
GLACNPQLLRWT	Saccharomyces cerevisiae	protein stability index	0.744
VFFVLAVVGADA	Saccharomyces cerevisiae	protein stability index	0.551
PRIVLFLRLHSN	Saccharomyces cerevisiae	protein stability index	0.689
FVVVVVWVSRGL	Saccharomyces cerevisiae	protein stability index	0.423
WSLPPLLSPLYF	Saccharomyces cerevisiae	protein stability index	0.758
VICSLFRYIMRL	Saccharomyces cerevisiae	protein stability index	0.634
FVVVGLGLLCLA	Saccharomyces cerevisiae	protein stability index	0.569
VVLWTFLLEVSA	Saccharomyces cerevisiae	protein stability index	0.0951

###

Tested on: Saccharomyces cerevisiae
Test details: protein stability index of tFT-peptide fusion in wild type (PSI (0-1 scale)); higher = more stable (slower turnover)
Cond: genetic background: wild type
I would appreciate it if you labelled entries TRUE when protein stability index is 0.2 or higher, otherwise FALSE.

Chain sequence	Assigned category
ARWRVGLWRKAS	FALSE
CTSGGYKFRTNN	TRUE
CLVSLPINLFFR	FALSE
CQSCGYKFRTNN	TRUE
ESMRWTFRYWVN	FALSE
ARWRVQLWRGAS	TRUE
RVTRLDAIYERI	TRUE
CLVSLPIQLFFR	FALSE
RVTRLDPIYFRI	TRUE
KKHKKGQKGKIN	TRUE
KKHKKCQKQKIN	FALSE
AITLPMCPLLLE	TRUE
GLYPCSVGCWFR	TRUE
LKIFRQKMNHQN	FALSE
LVVYLSCVAAIN	FALSE
RVTRLNAIYFRI	TRUE
FSMRWTFRYWLN	FALSE
CSVSLPILLFFR	FALSE
RDLRVLLPLYFR	TRUE
RTSCGYKFRTNN	FALSE
FSMRWKFRYWVN	FALSE
LVVYLSCVACRN	FALSE
CTSCGYKFRTNNC	TRUE
GWYMCSVGCWFR	FALSE
PNKRNHLIKLLN	FALSE
PSLAASFNRVVG	TRUE
RVTRLDLIYFRI	TRUE
KKHKKGQKTKIN	TRUE
RVTRLDAIYFHI	TRUE
GCYMCSVGCWFR	TRUE
VRGNVGGWRLVG	FALSE
LVVYLSCQACIN	FALSE
FSMRWTFRYWSN	TRUE
VRGFVGGWRLVG	FALSE

###

Listed here are sequences together with their documented protein stability index.
System: Saccharomyces cerevisiae
Test details: protein stability index of tFT-peptide fusion (C-terminal peptide) (PSI (0-1 scale)); higher = more stable (slower turnover)
Cond: genetic background: das1 deletion; temperature: 30 C

Chain sequence	protein stability index
IRHALHFRVVAV	0.432
TYKHIVRVNKCE	0.627
NYCVFLSYLLFC	0.318
FALPPSLLLLSA	0.442
YPPLFLLMRGVL	0.605
VRGLGFRWVWGW	0.664
PPVPRLLPVLAP	0.379
MLLFVSCCVFLF	0.202
KNVFLIRGRKNC	0.638
GIVYFDQWISVS	0.393
FMANRYICQKTL	0.635
SINKLLILIKSI	0.525
FFASAAVHLVTC	0.435
RRIILAGLFLIS	0.437
TCPFTIHRLKVG	0.617
GWRFCVFIYVHR	0.115
FVWVVRMLVFVP	0.187
FLDYLLFIFFFF	0.419
WVLSRAAFVFFF	0.473
GQFFRCWRRRLC	0.649
CFVSFLHLLYFS	0.35
RGPAYATCHLLC	0.645
ISAVLFFLYLSF	0.24
SFYVCVPVLWLV	0.27
CLHFLTWVRICS	0.409
GINHLSLKLRLF	0.631
PSPPPYAPPIPA	0.44
SIWVGSRFRWVV	0.665
LFGFILLGVSCC	0.164
DVVRWQRVRNYV	0.632
PALVVALLASVL	0.505
YLGSPLSLMLVA	0.379
VCDPWVFIRCLV	0.418
VAGGFWCWGMVG	0.663
